src = patent US6300501A

The following molecules are shown together with reported IC50 values.
- Tested on: H61 cells: NIH transformed 3T3 H-ras cells
- Test name: Clonogenic assay (6 well plates, soft agar)
- Format: cell-based
- Experimental conditions: 312 h, colonies counted after Day 13, read-out: Clonogenic Assay IC50

What measured IC50 goes with COc1ccc(CN(CC(=O)NCC(C)(C)c2ccccc2)C(=O)[C@H](Cc2c[nH]cn2)NC(=O)OCc2ccccc2)cc1 ?
360 nM

Please do the same for CCC(CNC(=O)CN(Cc1ccc(OCc2ccccc2)cc1)C(=O)[C@H](Cc1c[nH]cn1)NC(=O)NCc1ccccc1)c1ccccc1 (stereo partly drawn) as well.
> 1000 nM

// below: IC50 requested for another molecule
What measured IC50 goes with CC(CNC(=O)CN(Cc1ccc(Br)cc1)C(=O)[C@H](Cc1c[nH]cn1)NC(=O)OCc1ccccc1)c1ccccc1 (stereo partly drawn) ?
> 1000 nM

====

The following compounds are shown together with reported IC50 values.
- Target of assay: SF9 affinity purified rat farnesyl protein transferase (Rattus norvegicus, UniProt Q02293+Q04631)
- Construct: made in house; host or cells: Sf9 insect cells (baculovirus system inferred from b7)
- Test name: PFT inhibitory activity (radiolabeled farnesyl pyrophosphate, streptavidin bead assay)
- Assay type: biochemical
- Experimental conditions: HEPES buffer pH 7.4, without 5 mM potassium phosphate; read-out: IC50 (μM) Hepes
- Procedure: The protein:farnesyl transferase (PFT) or farnesyl protein transferase (FPT) inhibitory activity of compounds of the present invention were assayed in HEPES buffer (pH 7.4) containing 5 mM potassium phosphate and 20 μM ZnCl2. The solution also contained 5 mM DTT (dithiothreitol), 5 mM MgCl2, and 0.1% PEG 8000. […] After allowing the plate to settle for 30 minutes at room temperature, radioactivity was quantitated on a microBeta counter (Model 1450, Wallec). […]
Numbers only; they are read as µM.

What measured IC50 goes with CCC(CNC(=O)CN(Cc1ccc(OCc2ccccc2)cc1)C(=O)[C@H](Cc1c[nH]cn1)NC(=O)NCc1ccccc1)c1ccccc1 (stereo partly shown) ?
0.12

Next:
What measured IC50 goes with COc1ccc(CN(CC(=O)NCC(C)c2ccccc2)C(=O)[C@H](Cc2c[nH]cn2)NC(=O)OCc2ccccc2)cc1 (stereo partly shown) ?
1.5

Please do the same for CC(C)(CNC(=O)CN(Cc1ccc(Cl)cc1)C(=O)[C@H](Cc1c[nH]cn1)NC(=O)OCc1ccccc1)c1ccccc1 as well.
0.52

Please do the same for CC(CNC(=O)CN(Cc1ccc(OCc2ccncc2)cc1)C(=O)[C@H](Cc1c[nH]cn1)NC(=O)OCc1ccccc1)c1ccccc1 (stereo partly shown) as well.
0.097

Please do the same for CC(C)(CNC(=O)CN(Cc1ccc(OCc2cccnc2)cc1)C(=O)[C@H](Cc1c[nH]cn1)NC(=O)OCc1ccccc1)c1ccccc1 as well.
0.089

Please do the same for CC(C)(CNC(=O)CN(Cc1ccc(OCc2ccccc2)cc1)C(=O)[C@H](Cc1cnc[nH]1)NC(=O)OCc1ccccc1)c1ccccc1 as well.
0.12

Please do the same for COc1cccc(CN(CC(=O)NCC(C)(C)c2ccccc2)C(=O)[C@H](Cc2c[nH]cn2)NC(=O)OCc2ccccc2)c1 as well.
0.52

Please do the same for C[C@@H](Cc1ccccc1)NC(=O)CN(Cc1ccc(OCc2ccccc2)cc1)C(=O)[C@H](Cc1c[nH]cn1)NC(=O)OCc1ccccc1 as well.
2.5

Please do the same for CC(CNC(=O)CN(Cc1ccc(OCc2ccccc2)cc1)C(=O)[C@H](Cc1c[nH]cn1)NC(=O)NCc1ccccc1)c1ccccc1 (stereo partly shown) [Example 6] as well.
0.2

Please do the same for CC(CNC(=O)CN(Cc1ccc(OCc2cccnc2)cc1)C(=O)[C@H](Cc1c[nH]cn1)NC(=O)OCc1ccccc1)c1ccccc1 (stereo partly shown) as well.
0.45

Please do the same for O=C(CN(Cc1ccc(OCc2ccccc2)cc1)C(=O)[C@H](Cc1c[nH]cn1)NC(=O)OCc1ccccc1)NCC(c1ccccc1)c1ccccc1 as well.
1.73

Please do the same for CC(CNC(=O)CN(Cc1ccc(-c2ccccc2)cc1)C(=O)[C@H](Cc1c[nH]cn1)NC(=O)OCc1ccccc1)c1ccccc1 (stereo partly shown) as well.
0.88

Please do the same for CC(C)CN(CC(=O)NCC(C)c1ccccc1)C(=O)[C@H](Cc1c[nH]cn1)NC(=O)OCc1ccccc1 (stereo partly shown) as well.
2.6
